Data provenance: patent US4372948A

# Tested on: level of blood sugar
# measurement_protocol: Anti-hyperglycemia activity (reduction of blood sugar level)
# Type: in vivo, rat (Wistar, streptozotocin)
# condition_description: oral, 300 mg/kg, 3 hrs.
# if value of Reduced level of blood sugar after 3 hrs. reaches 100 mg/dL, tag 1; if it stays below, tag -1

compound="O=C(OCC1CCCCC1)c1ccccc1NC1O[C@H](CO)[C@@H](O[C@@H]2O[C@H](CO)[C@H](O)[C@H](O)[C@H]2O)[C@H](O)[C@H]1O (some centres unmarked)" cat=-1
compound="C[C@@H]1OC(Nc2ccc(CC(=O)O)cc2)[C@H](O)[C@H](O)[C@H]1O (stereo partly drawn) [Compound 27, p-aminophenylacetic acid-N-L-rhamnoside]" cat=-1
compound="O=C(OCc1ccccc1)c1ccc(NC2O[C@H](CO)[C@@H](O)[C@H](O)[C@H]2O)cc1 (stereo partly drawn) [Compound 14, benzyl p-aminobenzoate-N-D-glucoside]" cat=-1
compound="C[C@@H]1OC(Nc2ccc(C(=O)OCC3CCCCC3)cc2)[C@H](O)[C@H](O)[C@H]1O (some centres unmarked)" cat=-1
compound="O=C(OCc1ccccc1)c1cccc(NC2O[C@H](CO)[C@@H](O[C@@H]3O[C@H](CO)[C@H](O)[C@H](O)[C@H]3O)[C@H](O)[C@H]2O)c1 (some centres unmarked) [Compound 12, benzyl m-aminobenzoate-N-lactoside]" cat=-1
compound="O=C(OC1CCCCC1)c1cccc(NC2O[C@H](CO)[C@@H](O)[C@H](O)[C@@H]2O)c1 (stereo partly drawn) [Compound 17, cyclohexyl m-aminobenzoate-N-D-mannoside]" cat=1
compound="O=C(Oc1ccccc1)c1ccc(NC2O[C@H](CO)[C@@H](O[C@@H]3O[C@H](CO)[C@@H](O)[C@H](O)[C@H]3O)[C@H](O)[C@H]2O)cc1 (some centres unmarked) [Compound 9, phenyl p-aminobenzoate-N-cellobioside]" cat=-1
compound="O=C(Oc1ccccc1)c1cccc(NC2O[C@H](CO)[C@@H](O)[C@H](O)[C@@H]2O)c1 (stereo partly drawn) [Compound 7, phenyl m-aminobenzoate-N-D-mannoside]" cat=1
compound="O=C(OC1CCCCC1)c1ccc(NC2O[C@H](CO)[C@@H](O[C@H]3O[C@H](CO)[C@@H](O[C@H]4O[C@H](CO)[C@@H](O)[C@H](O)[C@H]4O)[C@H](O)[C@H]3O)[C@H](O)[C@H]2O)cc1 (some centres unmarked)" cat=1
compound="O=C(OCc1ccccc1)c1ccc(NC2C[C@H](O)[C@H](O)CO2)cc1 (stereo partly drawn) [Compound 13, benzyl p-aminobenzoate-N-D-deoxyriboside]" cat=1
compound="C[C@@H]1OC(Nc2ccc(CC(=O)O)cc2)[C@H](O)[C@H](O)[C@H]1O (some centres unmarked) [Compound 28]" cat=-1

----------
# Test system: cotton pellet granuloma
# measurement_protocol: Anti-granuloma activity (cotton pellet)
# Format: in vivo, rat
# condition_description: Rattus norvegicus, po, 192 h, 7 days, read-out: I.R. against cotton pellet edema
# if value of inhibition in vivo at 1000 mg/kg/day reaches 20%, tag True; if it stays below, tag False

compound="O=C(OC1CCCCC1)c1ccc(NC2O[C@H](CO)[C@@H](O[C@@H]3O[C@H](CO)[C@@H](O)[C@H](O)[C@H]3O)[C@H](O)[C@H]2O)cc1 (some centres unmarked)" cat=False
compound="COC(=O)Cc1ccc(NC2O[C@@H](C)[C@H](O)[C@@H](O)[C@H]2O)cc1 (some centres unmarked)" cat=True
compound="O=C(OCC1CCCCC1)c1ccc(NC2O[C@H](CO)[C@@H](O)[C@H](O)[C@H]2O)cc1 (some centres unmarked)" cat=False
compound="NC(=O)c1ccc(NC2O[C@H](CO)[C@@H](O)[C@H](O)[C@@H]2O)cc1 (stereo partly drawn) [Compound 4, p-aminobenzoic acid amide-N-D-mannoside]" cat=False

----------
# System: total cholesterol
# measurement_protocol: Anti-hyperlipemia activity, total cholesterol in blood
# Assay type: in vivo, rabbit (Japanese white male)
# condition_description: oral, 300 mg/kg once, 6 hrs.
Recorded measurements of Reduction of cholesterol level after 6 hrs., one per entry
quantity: Reduction of cholesterol level after 6 hrs. (mg/dL)

molecule="NC(=O)c1ccc(NC2OC[C@@H](O)[C@H](O)[C@H]2O)cc1 (stereo partly drawn) [Compound 3, p-aminobenzoic acid amide-N-D-xyloside]" val=45
molecule="O=C(Oc1ccccc1)c1ccc(NC2O[C@H](CO)[C@@H](O[C@H]3O[C@H](CO)[C@@H](O[C@H]4O[C@H](CO)[C@@H](O)[C@H](O)[C@H]4O)[C@H](O)[C@H]3O)[C@H](O)[C@H]2O)cc1 (stereo partly drawn) [Compound 10, phenyl p-aminobenzoate-N-maltotrioside]" val=33
molecule="O=C(OCc1ccccc1)c1ccc(NC2(CO)OC[C@@H](O)[C@@H](O)[C@@H]2O)cc1 (stereo partly drawn) [Compound 15, benzyl p-aminobenzoate-N-D-fructoside]" val=45

----------
# System: carrageenin edema
# measurement_protocol: Anti-Carrageenin edema activity
# Format: in vivo, rat
# condition_description: Rattus norvegicus, po, 1000 mg/kg once, read-out: I.R. against carrageenin edema
quantity: inhibition in vivo at 1000 mg/kg (%)

compound="O=C(OC1CCCCC1)c1ccccc1NC1C[C@H](O)[C@H](O)CO1 (stereo partly drawn)" val=18.6
compound="O=C(Oc1ccccc1)c1ccc(NC2OC[C@@H](O)[C@H](O)[C@H]2O)cc1 (stereo partly drawn) [Compound 8, phenyl p-aminobenzoate-N-D-xyloside]" val=21.4
compound="NC(=O)c1ccc(NC2OC[C@@H](O)[C@H](O)[C@H]2O)cc1 (stereo partly drawn) [Compound 3, p-aminobenzoic acid amide-N-D-xyloside]" val=26.5

----------
# measurement_protocol: in vivo
# condition_description: mouse, in vivo, po, mice, 7 days observation, read-out: LD50, acute oral toxicity
Note to self: use class 1 only for LD50 at 168 h readings below 10000 mg/kg; a reading exactly at 10000 mg/kg still gets class 0.

compound="O=C(OCc1ccccc1)c1ccc(NC2O[C@H](CO)[C@@H](O)[C@H](O)[C@H]2O)cc1 (stereo partly drawn) [Compound 14, benzyl p-aminobenzoate-N-D-glucoside]" cat="class 0"
compound="O=C(Oc1ccccc1)c1cccc(NC2O[C@H](CO)[C@@H](O)[C@H](O)[C@@H]2O)c1 (stereo partly drawn) [Compound 7, phenyl m-aminobenzoate-N-D-mannoside]" cat="class 0"
compound="O=C(OCC1CCCCC1)c1ccc(NC2OC[C@@H](O)[C@@H](O)[C@H]2O)cc1 (stereo partly shown) [Compound 23]" cat="class 0"
compound="C[C@@H]1OC(Nc2ccccc2C(=O)Oc2ccccc2)[C@H](O)[C@H](O)[C@H]1O (stereo partly drawn) [Compound 6, phenyl o-aminobenzoate-N-L-rhamnoside]" cat="class 0"
compound="NC(=O)c1ccc(NC2OC[C@@H](O)[C@H](O)[C@H]2O)cc1 (stereo partly drawn) [Compound 3, p-aminobenzoic acid amide-N-D-xyloside]" cat="class 0"
compound="O=C(OC1CCCCC1)c1ccc(NC2OC[C@@H](O)[C@H](O)[C@H]2O)cc1 (stereo partly drawn) [Compound 18, cyclohexyl p-aminobenzoate-N-D-xyloside]" cat="class 0"
compound="COC(=O)Cc1ccc(NC2O[C@@H](C)[C@H](O)[C@@H](O)[C@H]2O)cc1 (stereo partly shown) [Compound 26]" cat="class 0"
compound="C[C@@H]1OC(Nc2ccc(C(=O)OCC3CCCCC3)cc2)[C@H](O)[C@H](O)[C@H]1O (stereo partly shown) [Compound 25]" cat="class 1"
compound="O=C(OC1CCCCC1)c1cccc(NC2O[C@H](CO)[C@@H](O)[C@H](O)[C@@H]2O)c1 (stereo partly drawn) [Compound 17, cyclohexyl m-aminobenzoate-N-D-mannoside]" cat="class 0"
compound="C[C@@H]1OC(Nc2ccc(C(N)=O)cc2)[C@H](O)[C@H](O)[C@H]1O (stereo partly drawn) [Compound 5, p-aminobenzoic acid amide-N-L-rhamnoside]" cat="class 0"
compound="O=C(OC1CCCCC1)c1ccccc1NC1C[C@H](O)[C@H](O)CO1 (stereo partly shown) [Compound 16]" cat="class 1"
compound="O=C(OCC1CCCCC1)c1ccc(NC2O[C@H](CO)[C@@H](O)[C@H](O)[C@H]2O)cc1 (stereo partly shown) [Compound 24]" cat="class 0"

----------
# Test system: level of blood sugar
# measurement_protocol: Anti-hyperglycemia activity (reduction of blood sugar level)
# Type: in vivo, rat (Wistar, streptozotocin)
# condition_description: oral, 300 mg/kg, 6 hrs.
Note to self: use Met only for Reduced level of blood sugar after 6 hrs. readings below 100 mg/dL; a reading exactly at 100 mg/dL still gets Not met.

compound="O=C(Oc1ccccc1)c1ccc(NC2OC[C@@H](O)[C@H](O)[C@H]2O)cc1 (stereo partly drawn) [Compound 8, phenyl p-aminobenzoate-N-D-xyloside]" cat="Not met"
compound="O=C(OCc1ccccc1)c1ccc(NC2(CO)OC[C@@H](O)[C@@H](O)[C@@H]2O)cc1 (stereo partly drawn) [Compound 15, benzyl p-aminobenzoate-N-D-fructoside]" cat=Met
compound="NC(=O)c1ccc(NC2O[C@H](CO)[C@@H](O)[C@H](O)[C@@H]2O)cc1 (stereo partly drawn) [Compound 4, p-aminobenzoic acid amide-N-D-mannoside]" cat="Not met"
compound="C[C@@H]1OC(Nc2ccc(C(=O)OCC3CCCCC3)cc2)[C@H](O)[C@H](O)[C@H]1O (stereo partly drawn)" cat="Not met"
compound="O=C(OC1CCCCC1)c1ccccc1NC1C[C@H](O)[C@H](O)CO1 (stereo partly drawn)" cat="Not met"
compound="C[C@@H]1OC(Nc2ccc(CC(=O)O)cc2)[C@H](O)[C@H](O)[C@H]1O (stereo partly drawn) [Compound 28]" cat=Met
compound="C[C@@H]1OC(Nc2ccccc2C(=O)Oc2ccccc2)[C@H](O)[C@H](O)[C@H]1O (stereo partly drawn) [Compound 6, phenyl o-aminobenzoate-N-L-rhamnoside]" cat="Not met"
compound="O=C(Oc1ccccc1)c1ccc(NC2O[C@H](CO)[C@@H](O[C@H]3O[C@H](CO)[C@@H](O[C@H]4O[C@H](CO)[C@@H](O)[C@H](O)[C@H]4O)[C@H](O)[C@H]3O)[C@H](O)[C@H]2O)cc1 (stereo partly drawn) [Compound 10, phenyl p-aminobenzoate-N-maltotrioside]" cat="Not met"
compound="O=C(Oc1ccccc1)c1cccc(NC2O[C@H](CO)[C@@H](O)[C@H](O)[C@@H]2O)c1 (stereo partly drawn) [Compound 7, phenyl m-aminobenzoate-N-D-mannoside]" cat="Not met"
compound="C[C@@H]1OC(Nc2ccc(CC(=O)O)cc2)[C@H](O)[C@H](O)[C@H]1O (stereo partly drawn) [Compound 27, p-aminophenylacetic acid-N-L-rhamnoside]" cat=Met
compound="O=C(OC1CCCCC1)c1ccc(NC2O[C@H](CO)[C@@H](O[C@@H]3O[C@H](CO)[C@@H](O)[C@H](O)[C@H]3O)[C@H](O)[C@H]2O)cc1 (stereo partly drawn)" cat="Not met"
